- subject.of.test: Full length human recombinant HDAC8 protein (Homo sapiens)
- Construct: Full length human recombinant HDAC8 protein was expressed in baculoviral system
- Sequence (Q9BY41 whole entry): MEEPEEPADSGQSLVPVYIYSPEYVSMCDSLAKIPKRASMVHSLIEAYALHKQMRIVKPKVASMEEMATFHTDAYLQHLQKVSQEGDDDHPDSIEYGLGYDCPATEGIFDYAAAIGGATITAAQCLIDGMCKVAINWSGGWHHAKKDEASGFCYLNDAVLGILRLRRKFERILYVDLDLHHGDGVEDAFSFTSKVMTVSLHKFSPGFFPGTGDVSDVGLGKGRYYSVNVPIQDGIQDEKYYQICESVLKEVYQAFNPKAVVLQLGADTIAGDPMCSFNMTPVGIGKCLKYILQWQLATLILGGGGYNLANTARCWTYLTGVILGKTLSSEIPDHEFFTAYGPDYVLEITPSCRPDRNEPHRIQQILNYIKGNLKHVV
- assay.protocol: In vitro histone deacetylase assay: enzymatic HDAC8 assay, electrophoretic mobility shift
- run.conditions: substrate RHKK(Ac)-NH2, 1 nM enzyme, compounds listed under IC50 range headings
- Protocol: The enzymatic HDAC8 assay was performed using electrophoretic mobility shift assay. Full length human recombinant HDAC8 protein was expressed in baculoviral system and purified by affinity chromatography. […] The terminated assay plates were analyzed on LabChip® 3000 microfluidic electrophoresis instrument (Perkin Elmer/Caliper Life Sciences). The fluorescence intensity of the electrophoretically separated de-acetylated product and substrate peptide was measured. […]
pIC50: −log10 of the molar value.
Exercise: state measured pIC50 for each of the molecules provided.

O=C(/C=C/c1ccccc1NS(=O)(=O)c1cccc(C(F)(F)F)c1)NO :: 5.00 to 6.00
O=C(/C=C/c1ccccc1N1CCN(S(=O)(=O)c2ccc(OC(F)(F)F)cc2)CC1=O)NO :: > 6.00
COc1ccc(OC)c(S(=O)(=O)NC2CCN(c3ccccc3/C=C/C(=O)NO)CC2)c1 :: > 6.00
O=C(/C=C/c1ccccc1NC(=O)C1(c2ccccc2)CC1)NO :: > 6.00
O=C(/C=C/c1ccccc1NCc1ccccn1)NO :: > 6.00
O=C(/C=C/c1ccccc1N1CCC(NC(=O)C2CCCCC2)CC1)NO :: > 6.00
O=C(/C=C/c1ccccc1NC(=O)c1csc(-c2cccnc2)n1)NO :: > 6.00

// next entry
Asked: Give me measured pIC50, please, for this molecule: O=C(/C=C/c1ccccc1N1CC[C@H](c2ccccc2)C1=O)NO (single isomer, unassigned)
Given back: > 6.00
